Values from the supplement of paper PMC9112550

system: Escherichia coli TOP10; assay: shrunken log2 fold change of peptide-encoding DNA abundance (4.5 h post-induction vs induction); higher = less antimicrobial activity (less host growth inhibition); details: time post-induction: 4.5 h; library: site-saturation at positions 5, 18, 19, 20;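 further: peptides expressed intracellularly from a pBAD plasmid library in pooled LB shake-flask culture, induced with 0.3% L-arabinose, DNA abundance read by NGS, three biological replicates, DESeq2 with apeglm shrinkage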
Entry flag: Met if shrunken log2 fold change reaches 0.04; Not met if it does not.

Entry RRIRARPPRLPRPRPRPHNVPRP : is its shrunken log2 fold change no less than 0.04?
Not met

What would you report for RRIRGRPPRLPRPRPRPCFSPRP ?
Met

How about this sequence: RRIRCRPPRLPRPRPRPPHYPRP
Met

Same thing, different sequence: RRIRIRPPRLPRPRPRPHDDPRP
Not met

Now consider RRIRHRPPRLPRPRPRPDSYPRP and answer again.
Not met

Try the sequence RRIRIRPPRLPRPRPRPPTSPRP
Not met

And for RRIRCRPPRLPRPRPRPAECPRP ?
Not met

Param item: RRIRLRPPRLPRPRPRPPLVPRP
Met

Consider next the sequence RRIRKRPPRLPRPRPRPSHTPRP in the same way.
Not met

Next: RRIRFRPPRLPRPRPRPVPKPRP
Not met

# repeat for RRIRDRPPRLPRPRPRPCSFPRP
Not met

Follow-up entry: RRIRYRPPRLPRPRPRPEFMPRP
Not met

RRIRFRPPRLPRPRPRPCGRPRP ?
Met

Another: RRIRQRPPRLPRPRPRPSHVPRP
Not met

# repeat for RRIRQRPPRLPRPRPRPFCVPRP
Not met

Also RRIRERPPRLPRPRPRPKVRPRP ?
Not met

Repeat for the following sequence: RRIRQRPPRLPRPRPRPNAIPRP
Not met

Thanks! And RRIRMRPPRLPRPRPRPFCHPRP ?
Not met

Also RRIRDRPPRLPRPRPRPEYAPRP , if possible.
Met

Quick one: RRIRCRPPRLPRPRPRPRGRPRP
Met

Next up: RRIRDRPPRLPRPRPRPYVLPRP
Not met

Lookup RRIRKRPPRLPRPRPRPVSRPRP
Met

Now this one: RRIRKRPPRLPRPRPRPEIAPRP
Met

Field entry: RRIRIRPPRLPRPRPRPNWMPRP
Not met

Same question, RRIRKRPPRLPRPRPRPVENPRP this time
Met

Now the same for RRIRYRPPRLPRPRPRPEVLPRP
Not met

Next sequence up: RRIRIRPPRLPRPRPRPNEAPRP
Met

Also RRIRSRPPRLPRPRPRPRYCPRP , if possible.
Not met

And what about the sequence RRIRCRPPRLPRPRPRPSGVPRP ?
Not met

Then this sequence: RRIRYRPPRLPRPRPRPGLSPRP
Not met

Please give the result for RRIRGRPPRLPRPRPRPGNRPRP too.
Met

How about this sequence: RRIRGRPPRLPRPRPRPHWIPRP
Not met

Subsequent entry: RRIRDRPPRLPRPRPRPQPAPRP
Met

Moving on to RRIRVRPPRLPRPRPRPRRMPRP
Met

Next sequence up: RRIRCRPPRLPRPRPRPMQFPRP
Not met

RRIRGRPPRLPRPRPRPYHSPRP , same question.
Not met

Now consider RRIRYRPPRLPRPRPRPRAYPRP .
Not met

RRIRLRPPRLPRPRPRPSIYPRP ?
Not met

Same for RRIRLRPPRLPRPRPRPRWTPRP
Met

Would you mind doing RRIRLRPPRLPRPRPRPKAHPRP as well?
Met

Ok, now RRIRDRPPRLPRPRPRPSRFPRP
Met

Let us now turn to RRIRIRPPRLPRPRPRPNMTPRP
Not met

Item: RRIRGRPPRLPRPRPRPHHGPRP
Met

And the next one, RRIRGRPPRLPRPRPRPKSEPRP ?
Met

Repeat for the following sequence: RRIRCRPPRLPRPRPRPNWLPRP
Not met

What would you report for RRIRQRPPRLPRPRPRPIMQPRP ?
Not met

Next entry: RRIRPRPPRLPRPRPRPRWEPRP
Met

Could you do the same for RRIRRRPPRLPRPRPRPMSFPRP , please?
Not met

Same lookup for RRIRQRPPRLPRPRPRPTFLPRP , please.
Not met

Another: RRIRSRPPRLPRPRPRPECTPRP
Met

And for RRIRARPPRLPRPRPRPEASPRP ?
Met

Same again, this time with RRIRPRPPRLPRPRPRPAIIPRP
Not met

Similarly, RRIRQRPPRLPRPRPRPQHGPRP ?
Not met
